Target: GLP-1R (Homo sapiens)
Assay: GLP-1R Activation - cAMP Assay
Format: cell-based
Settings: cAMP increase in CHO cells stably expressing GLP-1R; each compound run on one of the two cAMP assays (Assay 1 or Assay 2, not specified)
Method: GLP-1R Activation—cAMP Assay 1 GLP-1R activation by compounds of the present disclosure were quantified by measuring cAMP increase in CHO cells stably expressing GLP-1R (MultiSpan product #C1267-1a). […] The tested GLP-1 compound was added to the cells in a 10-point dose response followed by a 30 minutes incubation at 37° C., 5% CO2. cAMP concentration increase was then detected using Cisbio's cAMP Gs Dynamic Kit (product #62AM4PEC) according to the manufacturer's protocol. […]
pEC50: −log10 of the molar value.
Decision: pEC50 >= 10 yields criterion met, all other cases yield criterion not met.

Compound: CC1(C)COC[C@H]1n1c(Cc2cc(F)c(-c3cccc(OCc4ccc(C#N)cc4F)n3)cc2F)nc2ccc(C(=O)O)cc21
Class assignment: criterion met
--
Compound: Cn1cc(-c2cc(F)c(COc3cccc(-c4cc(F)c(Cc5nc6ccc(C(=O)O)cc6n5[C@@H]5COCC5(C)C)cc4F)n3)cn2)cn1 (single isomer, unassigned)
Class assignment: criterion not met
--
Compound: CC1(C)COC[C@H]1n1c(Cc2c(F)cc(-c3ccc(F)c(OCc4ccc(Cl)cc4)n3)c(F)c2F)nc2c(F)cc(C(=O)O)cc21
Class assignment: criterion met
--
Compound: CC1(C)COCC1n1c(Cc2cc(F)c(-c3nccc(OCc4ccc(Cl)cc4F)n3)cc2F)nc2c(F)cc(C(=O)O)cc21 (stereo not shown)
Class assignment: criterion not met
--
Compound: CC1(C)COC[C@H]1n1c(Cc2cc(F)c(-c3cccc(OCc4ccc(Cl)cc4F)n3)cc2F)nc2cc(O)c(C(=O)O)cc21
Class assignment: criterion not met
--
Compound: Cc1cc(Cc2nc3c(F)cc(C(=O)O)cc3n2[C@@H]2COCC2(C)C)c(Cl)cc1-c1ccnc(OCc2ccc(Cl)cc2F)n1
Class assignment: criterion not met
--
Compound: CC1(C)COC[C@H]1n1c(Cc2cc(F)c(-c3cccc(OCc4ccc(C(F)(F)F)nn4)n3)cc2F)nc2ccc(C(=O)O)cc21
Class assignment: criterion not met
--
Compound: CC1(C)COC[C@H]1n1c(Cc2ccc(-c3cccc(OCc4cnc(-n5ccnn5)cc4Cl)n3)cc2F)nc2ccc(C(=O)O)cc21
Class assignment: criterion met
--
Compound: C[C@H]1OCC[C@H]1n1c(Cc2cc(F)c(-c3cccc(OCc4ccc(C#N)cc4F)n3)cc2F)nc2ccc(C(=O)O)cc21 (racemic)
Class assignment: criterion not met

* * *

Target: GLP-1R (Homo sapiens, UniProt P43220)
Sequence (P43220 24-463): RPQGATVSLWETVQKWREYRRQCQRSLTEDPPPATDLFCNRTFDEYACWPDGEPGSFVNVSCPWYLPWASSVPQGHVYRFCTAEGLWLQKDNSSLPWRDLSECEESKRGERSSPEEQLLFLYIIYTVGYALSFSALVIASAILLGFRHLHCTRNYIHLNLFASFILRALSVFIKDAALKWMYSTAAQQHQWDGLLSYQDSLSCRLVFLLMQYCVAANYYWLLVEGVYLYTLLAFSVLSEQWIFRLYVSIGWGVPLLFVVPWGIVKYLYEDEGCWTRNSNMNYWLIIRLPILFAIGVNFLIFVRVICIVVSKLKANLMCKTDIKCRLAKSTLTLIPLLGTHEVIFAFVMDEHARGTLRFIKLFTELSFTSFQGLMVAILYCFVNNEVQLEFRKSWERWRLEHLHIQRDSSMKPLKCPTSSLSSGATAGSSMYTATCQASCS
Experiment: GLP-1R Activation - cAMP Assay
Format: cell-based
Settings: cAMP increase in CHO cells stably expressing GLP-1R; each compound run on one of the two cAMP assays (Assay 1 or Assay 2, not specified)

Molecule: CC1(C)COC[C@H]1n1c(Cc2cc(F)c(-c3cccc(OCc4ccc5c(c4)CN(S(C)(=O)=O)C5)n3)cc2F)nc2ccc(C(=O)O)cc21
EC50, nM: 0.186

Molecule: CC1(C)COC[C@H]1n1c(Cn2cc(F)c(-c3cccc(OCc4ccc(Cl)cc4)n3)cc2=O)nc2ccc(C(=O)O)cc21
EC50, nM: 0.151

Molecule: CC1(C)COC[C@@H]1n1c(Cc2cc(F)c(-c3cccc(OCc4ccc(C(F)F)cc4F)n3)cc2F)nc2ccc(C(=O)O)cc21 (single isomer, unassigned) [Example 383B]
EC50, nM: 0.971

Molecule: CO[C@H](C)Cn1c(Cc2cc(F)c(-c3cccc(OCc4ccc(C#N)cc4)n3)cc2F)nc2c(F)cc(C(=O)O)cc21
EC50, nM: 0.267

Molecule: N#Cc1ccc(COc2cccc(-c3cc(F)c(Cc4nc5ccc(C(=O)O)cc5n4[C@H]4COC[C@H]4CF)cc3F)n2)c(F)c1
EC50, nM: 0.129

Molecule: CC1(C)COC[C@H]1n1c(Cc2c(F)cc(-c3ccnc(OCc4ccc(Cl)cc4F)n3)c(F)c2F)nc2c(F)cc(C(=O)O)cc21
EC50, nM: 0.508

Molecule: CC(=O)N1C[C@@H]2[C@H](n3c(Cc4cc(F)c(-c5cccc(OCc6ccc(C#N)cc6F)n5)cc4F)nc4ccc(C(=O)O)cc43)CO[C@@H]2C1
EC50, nM: 49.2

Molecule: COCCn1c(Cc2cc(F)c(-c3cccc(OCc4ccc(-c5ccc(C)nc5)cc4F)n3)cc2F)nc2ccc(C(=O)O)cc21
EC50, nM: 1.55

Molecule: CC1(C)COC[C@H]1n1c(Cc2cc(F)c(-c3ccc(F)c(OCc4ccc(-n5ccnn5)cc4)n3)cc2F)nc2ccc(C(=O)O)cc21
EC50, nM: 0.025

Molecule: CC1(C)COCC1n1c(Cc2cc(F)c(-c3cccc(OCc4ccc(C#N)cc4F)n3)cc2F)nc2c(Br)cc(C(=O)O)cc21 (stereo not shown)
EC50, nM: 0.19

Molecule: COCCn1c(Cc2cc(F)c(-c3ccc(F)c(OCc4ccc(C#N)cc4F)n3)cc2F)nc2ccc(C(=O)O)c(F)c21
EC50, nM: 0.112

Molecule: CC1(C)COC[C@H]1n1c(Cn2cc(F)c(-c3ccc(F)c(OCc4ccc(C#N)cc4F)n3)cc2=O)nc2c(F)cc(C(=O)O)cc21
EC50, nM: 0.043

Molecule: CC1(C)COC[C@H]1n1c(Cc2ccc(-c3cccc(OCc4ccc(Cl)cc4F)n3)cc2F)nc2c(F)cc(C(=O)O)cc21
EC50, nM: 0.062

All figures here come from patent US12570642B2.
